system: NCI-H226 lung; test: NCI-60 one-dose screen, 48 h (100 = growth as untreated, 0 = no growth, -100 = all killed); settings: 10 µM unless noted
This is part of a sample that, as a whole, favours compounds with a hit. Of some 83,000 tested, about 20% had one in any assay.
PROPERTY LABEL: growth (%)
Give bare numbers, in %.

// batch mode: one growth value per listed entry
1. Cc1cc(Cl)ccc1Nc1nc(C(F)(F)F)ccc1C(=O)N/N=C/c1ccc(N(C)C)cc1
2. Cc1cc(NCc2cc(Nc3ccnc4cc(Cl)ccc34)ccc2F)nc(N2CCCC2)n1
3. COc1ccc2c(c1)C(=O)/C(=C/c1ccc(OCC(=O)Nc3nccs3)cc1)O2
4. CCCCCCCCCCCC(c1ccccc1)[N+](C)(C)C (configuration not stated)
5. COc1cc(C(=O)/C=C/c2c(-c3ccc(F)cc3)nc3sc(C)cn23)cc(OC)c1OC
6. N#CC1=C(c2ccc(Br)cc2)NC(SCC(=O)c2ccc(Br)cc2)NC1=O (configuration not stated)

## Output
[51.1, 65.8, 94.1, 21, 58.5, 97]

State recorded growth for all listed compounds.
1. COC(=O)c1c2c(c(C)[n+]([O-])c1C)C(=O)C(NCc1ccc(F)cc1)=CC2=O
2. COc1cc(CCC[P+](c2ccccc2)(c2ccccc2)c2ccccc2)cc2c1OCO2
3. O=c1c2cc(F)ccc2sc2c(Nc3cccnc3)nc3ccccc3c12
4. CC(=O)[C@@H]1CC[C@]2(COS(=O)(=O)c3ccc(C)cc3)CC[C@]3(C)[C@H](CC[C@@H]4[C@@]5(C)CCCNC(C)(C)[C@@H]5CC[C@]43C)[C@@H]12

## Output
1. 81.6
2. 55.5
3. 90.5
4. 86

Need growth for each of these compounds.
1. CN(Cc1cnc2nc(N)nc(N)c2n1)c1ccc(C(=O)N[C@@H](CCc2nn[nH]n2)c2nn[nH]n2)cc1
2. COc1ccc(-c2nc(SCCC(C)C)nc(N/N=C\c3cccc([N+](=O)[O-])c3)c2C#N)cc1

## Output
1: 85.4; 2: 44.5

Lab note: each compound below needs its growth filled in.
1. COc1ccccc1CNCCCN1C(=O)c2ccc3c4c(ccc(c24)C1=O)C(=O)N(CCCNCCCCN)C3=O
2. Cc1cc(NCCCCNc2ccnc3cc(Cl)ccc23)nc(Nc2ccc(C(=O)N3CCCCC3)cc2)n1
3. O=c1ssc(Cl)c1-c1ccccc1
4. Cn1c(=O)c2[nH]c(NN)nc2n(C)c1=O

## Output
1: -56.5; 2: 98.6; 3: 99.1; 4: 106

## Input Which growth is listed for `Cc1cccc(-c2nc(N(C)c3ccc4ncsc4c3)c3ccccc3n2)n1` ?
## Output 84

====

Give measured growth for each item. Keep answers brief.
System: UACC-257 melanoma
Test: NCI-60 one-dose screen, 48 h (100 = growth as untreated, 0 = no growth, -100 = all killed)
Conditions: 10 µM unless noted
Method: Cells are grown in 96 well plates and exposed to the test compound for 48 hours. Compounds are tested at a single concentration, which is 10^-5 M for most compounds. The reported endpoint is percent growth (GI% or GIPRCNT), where numbers from 0 - 100% represent growth inhibition, and numbers from -100% - 0 represent cell death. For example, a value of 40 represents 60% growth inhibition. A value of 0 means no net growth occurred over the course of the experiment. […]
Compounds without any hit were thinned out: in the full panel of roughly 83,000, 20% have a hit. Calls of active or inactive are those of the source. Rule for the calls: active = growth percent below 10; inactive = the rest.

Worked cases, answers included:
| COMPOUND | growth |
| --- | --- |
| O=C(CCc1nnc(CN(c2ccccc2)c2ccccc2)o1)c1nc2ccccc2[nH]1 | 103% (inactive) |
| CCOc1ccccc1-c1cc(-c2cccs2)c(C#N)c(=O)[nH]1 | 101% (inactive) |
| O=C1CCC2=C3C4CCCCC4C(=O)C4CCCC(OC2C1)C34 (stereo not drawn) | 28.8% (inactive) |
| CCCCCCCC/C=C\CCCCCCCCOc1ccccc1CC(=O)NCC[N+](C)(C)C | 88.9% (inactive) |
| CC(C)Sc1nc(NNC(N)=S)c(C#N)c(-c2ccc(F)cc2)n1 | 101% (inactive) |

Batch: growth for all items listed.
1. O=C(CC(SCc1ccccc1)c1ccccc1)c1ccccc1 (stereo not drawn)
2. NC(N)=NN=C(c1ccccc1)c1ccccc1
3. Cc1ccc2nc(NC(=O)CSc3nc(-c4ccccc4)c(C#N)c(=O)n3Cc3ccccc3)sc2c1
4. O=C1/C(=C/c2ccc(Br)cc2)C=C(c2ccccc2)N1CCc1ccccc1
5. COc1cc(C2NC(=O)c3ccccc3N2)ccc1OCCCCCOc1c(OC)cc(C2=NOC(c3cc(OC)c(OC)c(OC)c3)C2)cc1OC (stereo not drawn)
6. C#CCOc1nc(C)cc(C)c1C#N
7. Cc1ccc(NS(=O)(=O)c2ccc3c(c2)C2OCCC2C(c2ccc(C(=O)C(C)C)cc2)N3)cc1C (stereo not drawn)
8. CCN(CC)c1nc(SCC(=O)Nc2nc3ccc(C)cc3s2)nc(-c2ccccc2)c1C#N

## Output
111% (inactive)
64.4% (inactive)
98.3% (inactive)
43.7% (inactive)
44% (inactive)
103% (inactive)
23.9% (inactive)
96.5% (inactive)

Items follow; give growth for each.
1. O=C(NCCCNc1cc(-c2cn(-c3ccccc3)nc2-c2cccc(O)c2)ccn1)c1ccccc1
2. O=Cc1c[nH]c2ccc(-c3csc4ccccc34)cc12
3. Cc1ccc(N(C(=O)CCc2c[nH]c3ccccc23)[C@H](C(=O)Nc2ccc(Cl)cc2)c2cccc([N+](=O)[O-])c2)cc1
4. COc1cc(C(=O)/C=C/c2c(C(F)(F)F)nc3sccn23)cc(OC)c1OC
5. O=C(/C=C/c1c(Cl)nc2sccn12)c1nccs1

## Output
1. -49.2% (active)
2. 39.3% (inactive)
3. 90.1% (inactive)
4. 13.4% (inactive)
5. 81% (inactive)

====

system: OVCAR-3 ovarian; assay: NCI-60 one-dose screen, 48 h (100 = growth as untreated, 0 = no growth, -100 = all killed); conditions: 10 µM unless noted
About 83,000 compounds went through this panel and 20% of them were active in at least one assay; those are over-represented in the sample as a whole.
PROPERTY LABEL: growth (%)
One number for each entry, in %.

| MOLECULE | growth (%) |
| --- | --- |
| COc1cc2c(cc1-c1c(C)noc1C)ncc1nc(C3CCCCC3)n(C3CCC(OC(F)F)CC3)c12 (configuration not stated) | 27.8 |

Provide reported growth for each item, in the same order as listed.
1. Nc1n[nH]c(-c2cc(Cl)ccc2O)c1-c1ccccc1
2. Cc1ccc(Nc2ccc(Nc3ccc(C)cc3)c3c2C(=O)c2cccc(O)c2C3=O)cc1
3. CCCc1cc2c(=O)c(C(=O)OC)c[nH]c2cc1N(CC)CC
4. O=c1c2cc(F)ccc2sc2c(Nc3cccnc3)nc3ccccc3c12
5. Cc1ccc(/C=C2\C(=O)N(C)c3ccc(S(=O)(=O)Nc4ccc(C(C)(C)C)cc4)cc32)s1
6. N#C/C(=C\c1ccc(Br)cc1)n1nnc2cc(F)c(F)cc21
7. O=C1Nc2ccc(F)cc2C12Nc1cc(Cl)ccc1S2 (configuration not stated)

## Output
107
121
95.3
108
11.4
2.19
82.8

Give growth for all molecules that follow.
1. Cc1ccc(N2CCN(C(=S)c3cccs3)CC2)cc1
2. O=C(CCCCCCSc1nc(-c2ccccc2)cc(-c2ccc(Cl)cc2)n1)NO
3. Cc1cc(Cl)ccc1Nc1nc(C(F)(F)F)ccc1C(=O)N/N=C/c1ccc(N(C)C)cc1
4. CNC(=O)CCN1CCN(CC/C=C2\c3ccccc3Sc3ccc(Cl)cc32)CC1
5. Cc1ccc2[nH]c(=O)c3c(c2c1)OC(N)=C(C#N)C31c2cc(Br)ccc2-c2ccc(Br)cc21
6. COc1ccc(N=Nc2ccc(O)c(=O)cc2)cc1

## Output
1: 113; 2: 25.2; 3: 22.5; 4: 57.8; 5: 58.9; 6: 16.2

Look at each molecule and report its growth.
1. CNC(=O)c1cc(Oc2ccc3nc(Nc4ccc(Cl)c(C(F)(F)F)c4)ccc3c2)ccn1
2. COc1ccc2c(c1)O/C(=C\c1cccc(OCC(=O)Nc3nc4ccccc4s3)c1)C2=O
3. COc1cc(CCC[P+](c2ccccc2)(c2ccccc2)c2ccccc2)cc2c1OCO2
4. C=CCNc1nc(NN2C(=O)c3cccc4cccc(c34)C2=O)nc(-n2cnc3ccccc32)n1
5. CCn1c(C)nc2cc(C(N)=O)ccc21
6. O=C(Nc1ccccc1-c1nc2ccccc2c(=O)[nH]1)c1cc2ccccc2[nH]1
7. N/C(=N\c1nc2ccccc2s1)NC(=O)Nc1cccc(Cl)c1

## Output
61.5
88.6
19.7
84.5
105
102
15.8

====

Test system: HCT-15 colon
Assay: NCI-60 one-dose screen, 48 h
Conditions: 10 µM unless noted
Experimental: Growth inhibition of the HCT-15 human tumor cell line is measured as a screen for anti-cancer activity. Cells are grown in 96 well plates and exposed to the test compound for 48 hours. Compounds are tested at a single concentration, which is 10^-5 M for most compounds. The reported endpoint is percent growth (GI% or GIPRCNT), where numbers from 0 - 100% represent growth inhibition, and numbers from -100% - 0 represent cell death. For example, a value of 40 represents 60% growth inhibition. […]
About 83,000 compounds went through this panel and 20% of them were active in at least one assay; those are over-represented in the sample as a whole. Activity calls are given as the source filed them. Rule for the calls: active = growth percent below 10; inactive = the rest.
Parameter call: string, one of 1 (active), 0 (inactive)

Below, 6 compounds whose answers are already recorded.
| COMPOUND | CLASSIFICATION |
| --- | --- |
| Cc1ccc2[nH]c(=O)c3c(c2c1)OC(N)=C(C#N)C31c2cc(Br)ccc2-c2ccc(Br)cc21 | 0 |
| Nc1n[nH]c2cc(F)c([C@@H]3Nc4c(F)cc5[nH]ncc5c4[C@H]4C5CCC(C5)[C@@H]34)cc12 (some centres undefined) | 1 |
| CCOC(=O)c1csc(NC(=O)COc2cccc(/C=C3\Oc4cc(OC)ccc4C3=O)c2)n1 | 0 |
| Cc1ccc(Nc2ccc(Nc3ccc(C)cc3)c3c2C(=O)c2cccc(O)c2C3=O)cc1 | 0 |
| Cc1nn(-c2ccccc2)c(Oc2ccc(Cl)cc2)c1/C=N\N=c1/sc2ccccc2n1C | 0 |
| Cc1ccc(/C=C/c2c(C(=O)/C=C/c3ccc(Cl)cc3)c(C)nc3ccccc23)cc1 | 1 |

## Input Can you look up the reported call for `COc1ccc(C(=O)/C=C/c2c(C(F)(F)F)nc3sccn23)cc1OC` for me?
## Output 0

## Input What would you report for `Cc1ccc(N(C(=O)CCc2c[nH]c3ccccc23)[C@H](C(=O)Nc2ccc(Cl)cc2)c2cccc([N+](=O)[O-])c2)cc1` ?
## Output 0

## Input Now consider `CCCCNC(=O)Oc1ccc2c(=O)c3sc4c(=O)c5ccccc5c(=O)c4c3c(=O)c2c1` .
## Output 1

## Input Note, next up: `O=C(c1ccc(Nc2nccc(NCCCCNc3ccnc4cc(Cl)ccc34)n2)cc1)N1CCCCC1`
## Output 0

## Input Lookup `OC(COc1ccccc1Cl)COc1ccccc1Cl`
## Output 0

## Input Further, for `CCCCCCCCn1ccc2cc(NC(=O)Cn3cc(CN4CCCC4)nn3)ccc21` ?
## Output 1
